Here's a batch of molecules along with measured log10 IC50 for UniProt:O60674.
Sequence (O60674 whole entry): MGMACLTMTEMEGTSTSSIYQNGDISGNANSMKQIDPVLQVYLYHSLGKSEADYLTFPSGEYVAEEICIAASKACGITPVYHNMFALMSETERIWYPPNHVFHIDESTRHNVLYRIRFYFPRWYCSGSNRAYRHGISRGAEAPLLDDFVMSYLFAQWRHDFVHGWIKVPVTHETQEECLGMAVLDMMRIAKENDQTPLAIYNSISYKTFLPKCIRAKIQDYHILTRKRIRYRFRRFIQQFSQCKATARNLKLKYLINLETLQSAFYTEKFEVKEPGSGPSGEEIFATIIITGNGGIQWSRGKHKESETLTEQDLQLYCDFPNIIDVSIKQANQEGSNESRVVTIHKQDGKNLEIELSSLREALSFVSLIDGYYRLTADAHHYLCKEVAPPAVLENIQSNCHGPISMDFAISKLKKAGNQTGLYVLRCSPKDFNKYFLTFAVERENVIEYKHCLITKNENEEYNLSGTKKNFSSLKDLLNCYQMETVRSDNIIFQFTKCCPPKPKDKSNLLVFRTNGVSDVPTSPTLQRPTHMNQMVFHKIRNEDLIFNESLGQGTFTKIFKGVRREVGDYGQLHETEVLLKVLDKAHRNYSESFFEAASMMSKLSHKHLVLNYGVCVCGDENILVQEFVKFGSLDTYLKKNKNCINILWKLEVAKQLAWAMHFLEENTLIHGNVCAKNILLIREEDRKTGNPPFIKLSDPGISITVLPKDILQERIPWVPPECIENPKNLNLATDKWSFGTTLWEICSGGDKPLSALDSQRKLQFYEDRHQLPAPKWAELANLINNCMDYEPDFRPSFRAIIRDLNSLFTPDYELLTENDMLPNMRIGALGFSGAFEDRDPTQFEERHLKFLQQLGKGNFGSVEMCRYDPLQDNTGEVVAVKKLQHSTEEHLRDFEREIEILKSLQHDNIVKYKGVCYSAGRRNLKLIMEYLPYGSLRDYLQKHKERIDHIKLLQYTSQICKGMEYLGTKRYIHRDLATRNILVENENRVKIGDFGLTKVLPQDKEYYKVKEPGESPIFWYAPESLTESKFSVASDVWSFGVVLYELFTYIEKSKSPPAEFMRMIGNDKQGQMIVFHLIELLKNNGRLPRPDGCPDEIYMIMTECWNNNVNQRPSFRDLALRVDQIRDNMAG
Annotation: log10 of IC50, nM basis.

Worked set:
CCN1CCN(Cc2ccc(Nc3nc4ccc(Oc5ccnc(NC(=O)CCN(C)C)c5)cc4n3C)cc2C(F)(F)F)CC1 3.69
CCN1CCN(Cc2ccc(Nc3nc4ccc(Oc5ccnc(NC(C)=O)c5)cc4n3C)cc2C(F)(F)F)CC1 2.90
CCN1CCN(Cc2ccc(Nc3nc4ccc(Oc5ccnc(NC(C)=O)c5)c(C)c4n3C)cc2C(F)(F)F)CC1 2.99
CCN1CCN(Cc2ccc(Nc3nc4ccc(Oc5ccnc(NC(C)=O)c5)c(C)c4[nH]3)cc2C(F)(F)F)CC1 3.02

Report value: log10 IC50, system: UniProt:O60674, molecule: CCN1CCN(Cc2ccc(Nc3nc4ccc(Oc5ccnc(NC(C)=O)c5)nc4n3C)cc2C(F)(F)F)CC1 3.13

Report value: log10 IC50, system: UniProt:O60674, molecule: CC(=O)Nc1cc(Oc2ccc3nc(Nc4ccc(F)cc4F)[nH]c3c2C)ccn1 2.65

Report value: log10 IC50, system: UniProt:O60674, molecule: CCN1CCN(Cc2ccc(Nc3nc4cc(Oc5ccnc(NC(C)=O)c5)ccc4n3C)cc2C(F)(F)F)CC1 3.93

Report value: log10 IC50, system: UniProt:O60674, molecule: CCN1CCN(Cc2ccc(Nc3nc4ccc(Oc5ccnc(N)c5)cc4n3C)cc2C(F)(F)F)CC1 3.29

Attribution: patent US12522583B2
